# Test system: HCT-8
# procedure-details: Cytotoxicity against human HCT8 cells
# Format: functional, cell-based
Can you tell me IC50 for the items I'm about to list?
Numeric only. Scale: µg/mL

### Prompt Can you share its IC50? I mean this compound: CCCCCCCCCCCCCC[C@H](O)[C@H]1CC[C@H]([C@@H](CC(O)CCCCCCCCCCC2=C[C@H](C)OC2=O)OC(C)=O)O1 (stereo partly specified)
### Response 0.86

### Prompt Queued: CCCCCCCCCCCCCCCC[C@@H](O)[C@H](O)CCCCCCCCCCCCCCC1=C[C@H](C)OC1=O
### Response 6.7

### Prompt Input CCCCCCCCCCCCCC[C@H](O)[C@@H]1C[C@@H](O)[C@@H]([C@@H](O)CC[C@@H](O)CCCCC[C@@H](O)CC2=C[C@H](C)OC2=O)O1
### Response 6.6
